Tested on: HSV-1
Measurement notes: HSV-1 infection of Vero 76 cells, viral DNA detected by hybridization capture (chemiluminescence)
Format: cell-based
Condition details: Human alphaherpesvirus 1; HSV-1 in Vero 76 cells, MOI=0.001, compounds incubated 40–48 hours at 37° C.
pIC50: −log10 of the molar value.
The threshold is inclusive: pIC50 of exactly 6 counts as 1; values below receive 0.

> print(dat)
                                   compound  label
1  CCCCNc1cc(-c2c(-c3ccc(F)cc3)nn3cccc(NCCCC)c23)ccn1 [Example 17]      0
2  CS(=O)(=O)Nc1ccn2nc(-c3ccc(F)cc3)c(-c3ccnc(NC4CCCC4)n3)c2c1 [Example 4]      0
3  COc1ccc(-c2nn3ccc(NC4CCCC4)c(Br)c3c2-c2ccnc(NC3CCCC3)n2)cc1 [Example 15]      0
4  CC(C)Nc1ccn2nc(-c3ccc(F)cc3)c(-c3ccnc(NC4CCCC4)n3)c2c1 [Example 9]      0
5  Nc1ccc2c(-c3ccnc(NC4CCCC4)n3)c(-c3ccc(F)cc3)nn2c1 [Example 5]      1
6  Fc1ccc(-c2nn3ccc(NC4CCCC4)c(Br)c3c2-c2ccnc(NC3CCCC3)n2)cc1 [Example 13]      0

Origin of measurements: patent US7141569B2
